Measured values drawn from PubChem BioAssay (EPA / NIEHS) for this set.

Test: BSK_LPS_PGE2: BioMAP Diversity Plus: LPS Assay for Prostaglandin E2 (PGE2) Biomarker Activity (AID 2283082)
Settings: primary human HUVEC with PBMC; actives raise or lower the signal
Calls of active or inactive are those of the source. Rule for the calls: active = hit-call score of the fitted dose curve at least 0.9, where 1 is the maximum; inactive = score below 0.9.
Possible outcomes: y (active), n (inactive)

Compound | Discrete Label
Cc1cc(C)nc(NC(=O)NS(=O)(=O)c2ccccc2C(=O)OC2COC2)n1 | n
COP(=S)(OC)Oc1ccc([N+](=O)[O-])cc1 | y
O=C(O)CCCOc1ccc(Cl)cc1Cl | y
CC(C)OC(=O)Nc1cccc(Cl)c1 | y
CCCN(CCC)c1c([N+](=O)[O-])cc(C(F)(F)F)cc1[N+](=O)[O-] | n
CNC(=O)Oc1cccc(N=CN(C)C)c1 | n
CC(C)N(C(=O)COc1nnc(C(F)(F)F)s1)c1ccc(F)cc1 | n
CCC(C)(C)C(=O)OC1=C(c2ccc(Cl)cc2Cl)C(=O)OC12CCCCC2 | n
Cc1[nH]c(=O)n(C(C)(C)C)c(=O)c1Cl | n
O=C(O)COc1ccc(Cl)cc1Cl | n
CNC(=O)Oc1ccccc1OC(C)C | n
CCCN(CCOc1c(Cl)cc(Cl)cc1Cl)C(=O)n1ccnc1 | y
COP(=S)(OC)Oc1ccc(SC)c(C)c1 | y
CN1CSC(=S)N(C)C1 | y
COc1nn(CSP(=S)(OC)OC)c(=O)s1 | y
N#CN | n
CC(C)(C)C(O)/C(=C\c1ccc(Cl)cc1Cl)n1cncn1 (centres undefined) | y
CCOCN(C(=O)CCl)c1c(C)cccc1CC | n
CCN(CC)C(=O)SCc1ccc(Cl)cc1 | y
O=[N+]([O-])/N=C1\NCCN1Cc1ccc(Cl)nc1 | n
O=C(Nc1ccccc1)Nc1cnns1 | n
CC1(c2ccc(Oc3ccccc3)cc2)OC(=O)N(Nc2ccccc2)C1=O (centres undefined) | y
COc1cc(OC)nc(NC(=O)NS(=O)(=O)c2cc(NC=O)ccc2C(=O)N(C)C)n1 | n
COC(=O)c1ccccc1CS(=O)(=O)NC(=O)Nc1nc(OC)cc(OC)n1 | n
C#CCN1C(=O)COc2cc(F)c(N3C(=O)C4=C(CCCC4)C3=O)cc21 | n
O=S1OCC2C(CO1)C1(Cl)C(Cl)=C(Cl)C2(Cl)C1(Cl)Cl (centres undefined) | n
COP(=O)(OC)OC=C(Cl)Cl | n
N#Cc1c(Cl)c(Cl)c(Cl)c(C#N)c1Cl | y
CC1(C)C(C=C(Cl)Cl)C1C(=O)OC(C#N)c1ccc(F)c(Oc2ccccc2)c1 (centres undefined) | y
